Experiment: Concentration required to inhibit RNA dependent RNA polymerase was determined from polio virus
Reported values of IC50 for individual entries

{"columns": ["Smiles string", "IC50"],
 "data": [
  ["Nc1ccc2[nH]cc(C[C@H](NC(=O)c3ccc4c(c3)nc(-c3ccoc3)n4C3CCCCC3)C(=O)O)c2c1", "> 500 µM"],
  ["O=C(O)C(=O)Nc1ccc2[nH]cc(C[C@H](NC(=O)c3ccc4c(c3)nc(-c3ccoc3)n4C3CCCCC3)C(=O)O)c2c1", "> 250 µM"],
  ["O=C(N[C@@H](Cc1c[nH]c2ccc(-c3nnn[nH]3)cc12)C(=O)O)c1ccc2c(c1)nc(-c1ccoc1)n2C1CCCCC1", "> 200 µM"],
  ["O=C(O)COc1ccc2[nH]cc(C[C@H](NC(=O)c3ccc4c(c3)nc(-c3ccoc3)n4C3CCCCC3)C(=O)O)c2c1", "100 µM"],
  ["O=C(N[C@@H](Cc1c[nH]c2ccc(O)cc12)C(=O)O)c1ccc2c(c1)nc(-c1ccoc1)n2C1CCCCC1", "79 µM"]
]}

---

Reported values of pIC50 for individual entries
Experiment: Concentration required to inhibit DNA dependent RNA polymerase was determined from calf thymus
pIC50: −log10 of the molar value.

{"columns": ["Smiles string", "pIC50"],
 "data": [
  ["O=C(N[C@@H](Cc1c[nH]c2ccc(NS(=O)(=O)C(F)(F)F)cc12)C(=O)O)c1ccc2c(c1)nc(-c1ccoc1)n2C1CCCCC1", "< 3.60"],
  ["CC(=O)Nc1ccc2[nH]cc(C[C@H](NC(=O)c3ccc4c(c3)nc(-c3ccoc3)n4C3CCCCC3)C(=O)O)c2c1", "< 3.60"],
  ["O=C(O)c1ccc2[nH]cc(C[C@H](NC(=O)c3ccc4c(c3)nc(-c3ccoc3)n4C3CCCCC3)C(=O)O)c2c1", "< 3.60"],
  ["O=C(N[C@@H](Cc1c[nH]c2ccc(-c3nnn[nH]3)cc12)C(=O)O)c1ccc2c(c1)nc(-c1ccoc1)n2C1CCCCC1", "< 3.60"],
  ["NC(=O)c1ccc2[nH]cc(C[C@H](NC(=O)c3ccc4c(c3)nc(-c3ccoc3)n4C3CCCCC3)C(=O)O)c2c1", "< 3.60"],
  ["O=C(O)C(=O)Nc1ccc2[nH]cc(C[C@H](NC(=O)c3ccc4c(c3)nc(-c3ccoc3)n4C3CCCCC3)C(=O)O)c2c1", "< 3.60"],
  ["O=C(O)COc1ccc2[nH]cc(C[C@H](NC(=O)c3ccc4c(c3)nc(-c3ccoc3)n4C3CCCCC3)C(=O)O)c2c1", "< 3.70"],
  ["O=C(N[C@@H](Cc1c[nH]c2ccc(O)cc12)C(=O)O)c1ccc2c(c1)nc(-c1ccoc1)n2C1CCCCC1", "< 3.70"],
  ["Nc1ccc2[nH]cc(C[C@H](NC(=O)c3ccc4c(c3)nc(-c3ccoc3)n4C3CCCCC3)C(=O)O)c2c1", "< 3.60"]
]}

---

Reported values of IC50 for individual entries
Experiment: Concentration required to inhibit RNA dependent RNA polymerase was determined from polio virus
Metric: IC50

{"columns": ["Smiles string", "Metric", "Result"],
 "data": [
  ["O=C(O)c1ccc2[nH]cc(C[C@H](NC(=O)c3ccc4c(c3)nc(-c3ccoc3)n4C3CCCCC3)C(=O)O)c2c1", "IC50", "> 200 µM"],
  ["O=C(N[C@@H](Cc1c[nH]c2ccc(NS(=O)(=O)C(F)(F)F)cc12)C(=O)O)c1ccc2c(c1)nc(-c1ccoc1)n2C1CCCCC1", "IC50", "> 250 µM"],
  ["NC(=O)c1ccc2[nH]cc(C[C@H](NC(=O)c3ccc4c(c3)nc(-c3ccoc3)n4C3CCCCC3)C(=O)O)c2c1", "IC50", "> 200 µM"],
  ["CC(C)(Oc1ccc2[nH]cc(C[C@H](NC(=O)c3ccc4c(c3)nc(-c3ccoc3)n4C3CCCCC3)C(=O)O)c2c1)C(=O)O", "IC50", "> 200 µM"],
  ["CS(=O)(=O)Nc1ccc2[nH]cc(C[C@H](NC(=O)c3ccc4c(c3)nc(-c3ccoc3)n4C3CCCCC3)C(=O)O)c2c1", "IC50", "> 500 µM"],
  ["CC(=O)Nc1ccc2[nH]cc(C[C@H](NC(=O)c3ccc4c(c3)nc(-c3ccoc3)n4C3CCCCC3)C(=O)O)c2c1", "IC50", "> 125 µM"]
]}
